These entries and their values trace back to ChEMBL document CHEMBL1141017.

test_details: Metabolic stability in human liver microsomes assessed as compound remaining after 40 mins
Assay type: ADME, Microsome
test_conditions: read-out: Stability
value_kind: remaining at 40 min

Some entries whose results are on file:
structure_smiles	remaining at 40 min
C=C(C)[C@@H]1CC[C@]2(C(=O)NCc3ccc(F)cc3C(=O)O)CC[C@]3(C)[C@H](CC[C@@H]4[C@@]5(C)CC[C@H](OC(=O)CC(C)(C)C(=O)O)C(C)(C)[C@@H]5CC[C@]43C)[C@@H]12	10%
C=C(C)[C@@H]1CC[C@]2(C(=O)NCc3ccccc3OC)CC[C@]3(C)[C@H](CC[C@@H]4[C@@]5(C)CC[C@H](OC(=O)CC(C)(C)C(=O)O)C(C)(C)[C@@H]5CC[C@]43C)[C@@H]12	10%
C=C(C)[C@@H]1CC[C@]2(C(=O)NCc3ccc4cccc(O)c4n3)CC[C@]3(C)[C@H](CC[C@@H]4[C@@]5(C)CC[C@H](OC(=O)CC(C)(C)C(=O)O)C(C)(C)[C@@H]5CC[C@]43C)[C@@H]12	> 40%
C=C(C)[C@@H]1CC[C@]2(C(=O)NCc3ccc(N(C)C)cc3)CC[C@]3(C)[C@H](CC[C@@H]4[C@@]5(C)CC[C@H](OC(=O)CC(C)(C)C(=O)O)C(C)(C)[C@@H]5CC[C@]43C)[C@@H]12	10%
C=C(C)[C@@H]1CC[C@]2(C(=O)NCc3ccccc3C)CC[C@]3(C)[C@H](CC[C@@H]4[C@@]5(C)CC[C@H](OC(=O)CC(C)(C)C(=O)O)C(C)(C)[C@@H]5CC[C@]43C)[C@@H]12	10%
C=C(C)[C@@H]1CC[C@]2(C(=O)NCc3ccc(C(=O)O)cc3)CC[C@]3(C)[C@H](CC[C@@H]4[C@@]5(C)CC[C@H](OC(=O)CC(C)(C)C(=O)O)C(C)(C)[C@@H]5CC[C@]43C)[C@@H]12	10%

Hi, could you look up remaining at 40 min for each item in my list?
1. C=C(C)[C@@H]1CC[C@]2(C(=O)NCc3cccc(OC(F)(F)F)c3)CC[C@]3(C)[C@H](CC[C@@H]4[C@@]5(C)CC[C@H](OC(=O)CC(C)(C)C(=O)O)C(C)(C)[C@@H]5CC[C@]43C)[C@@H]12
2. C=C(C)[C@@H]1CC[C@]2(C(=O)NCc3ccc(Cl)cc3)CC[C@]3(C)[C@H](CC[C@@H]4[C@@]5(C)CC[C@H](OC(=O)CC(C)(C)C(=O)O)C(C)(C)[C@@H]5CC[C@]43C)[C@@H]12

Resp:
1. 10%
2. > 60%

====

What CC50 at 96 h was measured for each of the following?
test_details: Cytotoxicity against human MT4 cells after 4 days by cell viability assay
Type: cell-based
test_conditions: read-out: TC50
Answers are plain numbers, in µM.

structure_smiles	recorded_measurement
C=C(C)[C@@H]1CC[C@]2(C(=O)NCc3ccc(OC(F)(F)F)cc3)CC[C@]3(C)[C@H](CC[C@@H]4[C@@]5(C)CC[C@H](OC(=O)CC(C)(C)C(=O)O)C(C)(C)[C@@H]5CC[C@]43C)[C@@H]12	1

Hi, could you look up CC50 at 96 h for each item in my list?
1. C=C(C)[C@@H]1CC[C@]2(C(=O)NCCc3ccccc3C(=O)NCCC(=O)O)CC[C@]3(C)[C@H](CC[C@@H]4[C@@]5(C)CC[C@H](OC(=O)CC(C)(C)C(=O)O)C(C)(C)[C@@H]5CC[C@]43C)[C@@H]12
2. C=C(C)[C@@H]1CC[C@]2(C(=O)NCc3cccc(OC(F)(F)F)c3)CC[C@]3(C)[C@H](CC[C@@H]4[C@@]5(C)CC[C@H](OC(=O)CC(C)(C)C(=O)O)C(C)(C)[C@@H]5CC[C@]43C)[C@@H]12
3. C=C(C)[C@@H]1CC[C@]2(C(=O)NCc3ccc(N(C)C)cc3)CC[C@]3(C)[C@H](CC[C@@H]4[C@@]5(C)CC[C@H](OC(=O)CC(C)(C)C(=O)O)C(C)(C)[C@@H]5CC[C@]43C)[C@@H]12
4. C=C(C)[C@@H]1CC[C@]2(C(=O)N[C@H](C(=O)O)c3ccc(OC)cc3)CC[C@]3(C)[C@H](CC[C@@H]4[C@@]5(C)CC[C@H](OC(=O)CC(C)(C)C(=O)O)C(C)(C)[C@@H]5CC[C@]43C)[C@@H]12
5. C=C(C)[C@@H]1CC[C@]2(C(=O)NCCCc3ccc(OC)c(OC)c3)CC[C@]3(C)[C@H](CC[C@@H]4[C@@]5(C)CC[C@H](OC(=O)CC(C)(C)C(=O)O)C(C)(C)[C@@H]5CC[C@]43C)[C@@H]12
6. C=C(C)[C@@H]1CC[C@]2(C(=O)NCc3cccc(C(=O)NCCNC(C)=O)c3)CC[C@]3(C)[C@H](CC[C@@H]4[C@@]5(C)CC[C@H](OC(=O)CC(C)(C)C(=O)O)C(C)(C)[C@@H]5CC[C@]43C)[C@@H]12
7. C=C(C)[C@@H]1CC[C@]2(C(=O)N[C@@H](Cc3ccc(OC)cc3)C(=O)O)CC[C@]3(C)[C@H](CC[C@@H]4[C@@]5(C)CC[C@H](OC(=O)CC(C)(C)C(=O)O)C(C)(C)[C@@H]5CC[C@]43C)[C@@H]12
8. C=C(C)[C@@H]1CC[C@]2(C(=O)NCc3ccc(C(=O)NCCNC(C)=O)cc3)CC[C@]3(C)[C@H](CC[C@@H]4[C@@]5(C)CC[C@H](OC(=O)CC(C)(C)C(=O)O)C(C)(C)[C@@H]5CC[C@]43C)[C@@H]12

Resp:
9.6
5.2
1
6.8
10
10
5.6
10

Req: Which value of CC50 at 96 h has been reported for `C=C(C)[C@@H]1CC[C@]2(C(=O)NCc3ccccc3C(=O)O)CC[C@]3(C)[C@H](CC[C@@H]4[C@@]5(C)CC[C@H](OC(=O)CC(C)(C)C(=O)O)C(C)(C)[C@@H]5CC[C@]43C)[C@@H]12` in the records?
Resp: 4.5

====

test_details: Oral bioavailability in Sprague-Dawley rat at 5 mg/kg
Type: ADME, organism-based
test_conditions: in vivo
What bioavailability was measured for each of the following?
Answers are plain numbers, in %.

Some entries whose results are on file:
structure_smiles	output_unit	recorded_measurement
C=C(C)[C@@H]1CC[C@]2(C(=O)NCc3ccccc3C(=O)O)CC[C@]3(C)[C@H](CC[C@@H]4[C@@]5(C)CC[C@H](OC(=O)CC(C)(C)C(=O)O)C(C)(C)[C@@H]5CC[C@]43C)[C@@H]12	%	56.4
C=C(C)[C@@H]1CC[C@]2(C(=O)NCCc3ccc(OC)cc3)CC[C@]3(C)[C@H](CC[C@@H]4[C@@]5(C)CC[C@H](OC(=O)CC(C)(C)C(=O)O)C(C)(C)[C@@H]5CC[C@]43C)[C@@H]12	%	1.84

Shift focus to the following entry.
Req: Which value of bioavailability has been reported for `C=C(C)[C@@H]1CC[C@]2(C(=O)NCc3ccc(Cl)cc3)CC[C@]3(C)[C@H](CC[C@@H]4[C@@]5(C)CC[C@H](OC(=O)CC(C)(C)C(=O)O)C(C)(C)[C@@H]5CC[C@]43C)[C@@H]12` in the records?
Resp: 3.91

====

test_details: Therapeutic index, ratio of TC50 for human MT4 cells to EC50 for HIV1 NL43
Assay type: cell-based
What selectivity ratio was measured for each of the following?

structure_smiles	selectivity ratio
C=C(C)[C@@H]1CC[C@]2(C(=O)NCc3ccc(C(=O)NCCNC(C)=O)cc3)CC[C@]3(C)[C@H](CC[C@@H]4[C@@]5(C)CC[C@H](OC(=O)CC(C)(C)C(=O)O)C(C)(C)[C@@H]5CC[C@]43C)[C@@H]12	> 400
C=C(C)[C@@H]1CC[C@]2(C(=O)NCc3ccccc3)CC[C@]3(C)[C@H](CC[C@@H]4[C@@]5(C)CC[C@H](OC(=O)CC(C)(C)C(=O)O)C(C)(C)[C@@H]5CC[C@]43C)[C@@H]12	> 400
C=C(C)[C@@H]1CC[C@]2(C(=O)NCc3ccccc3C(=O)NCCNC(C)=O)CC[C@]3(C)[C@H](CC[C@@H]4[C@@]5(C)CC[C@H](OC(=O)CC(C)(C)C(=O)O)C(C)(C)[C@@H]5CC[C@]43C)[C@@H]12	> 400

Shift focus to the following entry.
Req: Which value of selectivity ratio has been reported for `C=C(C)[C@@H]1CC[C@]2(C(=O)NCc3cccc(C(=O)NCCNC(C)=O)c3)CC[C@]3(C)[C@H](CC[C@@H]4[C@@]5(C)CC[C@H](OC(=O)CC(C)(C)C(=O)O)C(C)(C)[C@@H]5CC[C@]43C)[C@@H]12` in the records?
Resp: > 400

====

test_details: Metabolic stability in human liver microsomes assessed as compound remaining after 40 mins
Assay type: ADME, Microsome
test_conditions: read-out: Stability
What remaining at 40 min was measured for each of the following?

Some entries whose results are on file:
structure_smiles	remaining at 40 min
C=C(C)[C@@H]1CC[C@]2(C(=O)NCc3ccc(-c4ccccc4)cc3)CC[C@]3(C)[C@H](CC[C@@H]4[C@@]5(C)CC[C@H](OC(=O)CC(C)(C)C(=O)O)C(C)(C)[C@@H]5CC[C@]43C)[C@@H]12	10%
C=C(C)[C@@H]1CC[C@]2(C(=O)NCc3ccccc3C(=O)O)CC[C@]3(C)[C@H](CC[C@@H]4[C@@]5(C)CC[C@H](OC(=O)CC(C)(C)C(=O)O)C(C)(C)[C@@H]5CC[C@]43C)[C@@H]12	> 60%
C=C(C)[C@@H]1CC[C@]2(C(=O)NCc3ccc(OC)cc3)CC[C@]3(C)[C@H](CC[C@@H]4[C@@]5(C)CC[C@H](OC(=O)CC(C)(C)C(=O)O)C(C)(C)[C@@H]5CC[C@]43C)[C@@H]12	10%

Shift focus to the following entry.
Req: Which value of remaining at 40 min has been reported for `C=C(C)[C@@H]1CC[C@]2(C(=O)NCc3cccc(OC)c3)CC[C@]3(C)[C@H](CC[C@@H]4[C@@]5(C)CC[C@H](OC(=O)CC(C)(C)C(=O)O)C(C)(C)[C@@H]5CC[C@]43C)[C@@H]12` in the records?
Resp: 10%
